# Test system: HOP-62 NSCLC
# measurementDescription: NCI tumour cell line growth inhibition, 48 h
Where a SMILES comes first, the peptide text is derived from it. Bridges are numbered along the chain shown (N, C = ends). Roman numbers before positions name the chains, in order. [ ]: non-standard residue; d: D form. The star is where a group is joined. Heptadecanoyl = CCCCCCCCCCCCCCCCC(=O)*; Phg = N[CH](C(=O)O)c1ccccc1
// values below are reported TGI

[
  {
    "compound": "CC(C)(C)OC(=O)N1C(=O)OC[C@@H]2C=C[C@@H]21",
    "TGI": "> 100 µM"
  },
  {
    "compound": "CCCCCCCCCCCCCCCCC(=O)N1CCCC1C(=O)NCC(=O)NC(C(=O)N1CCCC1C(=O)NC(CO)C(=O)NC(Cc1ccc(O)cc1)C(=O)NC(CCCCNC(=O)C1CCCN1C(=O)C(CCCCN)NC(=O)C(CCCCN)NC(=O)C(CCCCN)NC(=O)C(CCCNC(=N)N)NC(=O)C(CCCCN)NC(=O)C(N)C(C)C)C(=O)NC(CC(C)C)C(=O)NC(CCCNC(=N)N)C(=O)N1CCCC1C(=O)NCC(N)=O)c1ccccc1 (stereo not given) (I: Heptadecanoyl-PG[Phg]PSYKLRPG-NH2 / II: H-VKRKKKP; amide I:7-II:C; configuration not given here)",
    "TGI": "> 100 µM"
  },
  {
    "compound": "Cc1nn(C(=O)c2ccncc2)c2c1C(c1ccccc1O)SC(N)=N2 (stereo not given)",
    "TGI": "> 10 µM"
  },
  {
    "compound": "N=C(N)c1ccc(-c2ccc(-c3ccc(C(=N)N)cc3)o2)cc1",
    "TGI": "> 100 µM"
  },
  {
    "compound": "CC[C@]12C=CCN3CCC4(c5cc(N=Nc6ccc([N+](=O)[O-])cc6)c(OC)cc5N(C)[C@H]4[C@@](O)(C(=O)OC)[C@@H]1OC(C)=O)[C@@H]32 (stereo not given in full)",
    "TGI": "43.6 µM"
  }
]

###

# System: RPMI-8226 leukemia
# measurementDescription: NCI tumour cell line growth inhibition, 48 h; in the data active = GI50 below about 0.43 µM; inactive = the rest
Where a SMILES comes first, the peptide text is derived from it. Bridges are numbered along the chain shown (N, C = ends). Roman numbers before positions name the chains, in order. [ ]: non-standard residue; d: D form. The star is where a group is joined. Heptadecanoyl = CCCCCCCCCCCCCCCCC(=O)*; Phg = N[CH](C(=O)O)c1ccccc1
Outcomes: label 1 for active, label 0 for inactive

[
  {
    "compound": "COc1ccc2cc(C(=O)/C=C/c3ccccc3OC)ccc2c1",
    "targetDesc": "RPMI-8226 leukemia",
    "labelClass": "label 0"
  },
  {
    "compound": "CN(C)CCOc1cccc(NC2=C(Cl)C(=O)C(Nc3cccc(OCCN(C)C)c3)=C(Cl)C2=O)c1",
    "targetDesc": "RPMI-8226 leukemia",
    "labelClass": "label 1"
  },
  {
    "compound": "N=c1c2c(=O)n3c(nc2nc2sc4ccc(Cl)cc4n12)-c1ccccc1Sc1ccccc1-3",
    "targetDesc": "RPMI-8226 leukemia",
    "labelClass": "label 0"
  },
  {
    "compound": "O=C1C=CC(=O)N1CCCCCCCCCCN1C(=O)C=CC1=O",
    "targetDesc": "RPMI-8226 leukemia",
    "labelClass": "label 0"
  },
  {
    "compound": "Nc1nn(C(=O)Nc2ccc(Cc3ccccc3)cc2)c2ccccc12",
    "targetDesc": "RPMI-8226 leukemia",
    "labelClass": "label 0"
  },
  {
    "compound": "CC1=C(C(=O)Nc2ccc(Cl)c(Cl)c2)C(c2cccc(O)c2)NC(=S)N1 (stereo unspecified)",
    "targetDesc": "RPMI-8226 leukemia",
    "labelClass": "label 0"
  },
  {
    "compound": "Cc1ccc(S(=O)(=O)N2C/C(=C\\c3cc(F)cc(F)c3)C(=O)/C(=C/c3cc(F)cc(F)c3)C2)cc1",
    "targetDesc": "RPMI-8226 leukemia",
    "labelClass": "label 1"
  },
  {
    "compound": "COc1ccc2c(c1)c(=O)oc1cc(OC/C(=N\\O)c3ccc(F)cc3)ccc12",
    "targetDesc": "RPMI-8226 leukemia",
    "labelClass": "label 0"
  },
  {
    "compound": "Cc1cc(Cl)ccc1Nc1nc(C(F)(F)F)ccc1C(=O)N/N=C/c1ccc(F)cc1",
    "targetDesc": "RPMI-8226 leukemia",
    "labelClass": "label 0"
  },
  {
    "compound": "CCCCCCCCCCCCCCCCC(=O)N1CCCC1C(=O)NCC(=O)NC(C(=O)N1CCCC1C(=O)NC(CO)C(=O)NC(Cc1ccc(O)cc1)C(=O)NC(CCCCNC(=O)C1CCCN1C(=O)C(CCCCN)NC(=O)C(CCCCN)NC(=O)C(CCCCN)NC(=O)C(CCCNC(=N)N)NC(=O)C(CCCCN)NC(=O)C(N)C(C)C)C(=O)NC(CC(C)C)C(=O)NC(CCCNC(=N)N)C(=O)N1CCCC1C(=O)NCC(N)=O)c1ccccc1 (stereo unspecified) (I: Heptadecanoyl-PG[Phg]PSYKLRPG-NH2 / II: H-VKRKKKP; amide I:7-II:C; configuration not given here)",
    "targetDesc": "RPMI-8226 leukemia",
    "labelClass": "label 0"
  },
  {
    "compound": "OCCCNC(=S)Nc1ccc(-c2nc3ccccc3s2)cc1",
    "targetDesc": "RPMI-8226 leukemia",
    "labelClass": "label 0"
  }
]
